Data provenance: patent EP4768499A1

# method notes: Metabolic stability test: liver microsomal stability assay
# Type: in vitro ADME, mouse
# measurement setup: male, pH 7.4; mouse liver microsomes 0.5 mg protein/mL, compound 1 µM, presence of NADPH; read-out: Mouse Hepatic Microsome CLh,int NADPH(+)
Starred links: 1 amine or outer side, 2 acyl side, 3 side chain; linkers in the order of their positions; H or OH if unused. Positions of bridges follow the written chain, without caps; N, C: chain ends. Non-standard residues stand in square brackets, D forms with d. Residues, ends and D or L forms follow the SMILES beside them. *: point of attachment. NMeF = CN[C@@H](Cc1ccccc1)C(=O)O; NMeI = CC[C@H](C)[C@H](NC)C(=O)O; NMeβAla = CN(CCC(=O)[*:2])[*:1]; NMeD = CN[C@@H](CC(=O)O)C(=O)O; NMeL = CN[C@@H](CC(C)C)C(=O)O; NMeA = CN[C@@H](C)C(=O)O; Piperidide = C1CCN(*)CC1; Abu = CC[C@H](N)C(=O)O; Sar = CNCC(=O)O
reported property: microsomal CLint at 1 µM

query: What does the record list as microsomal CLint at 1 µM for CC[C@@H]1NC(=O)[C@H](CC(C)C)N(C)C(=O)[C@H](C)NC(=O)CN(C)C(=O)[C@H](CC(C)C)N(C)C(=O)CCN(C)C(=O)[C@H](Cc2ccccc2)N(C)C(=O)[C@H]([C@@H](C)CC)NC(=O)[C@H]([C@@H](C)CC)N(C)C(=O)[C@@H](C)NC(=O)C[C@@H](C(=O)N2CCCCC2)N(C)C(=O)[C@H](Cc2ccccc2)N(C)C(=O)[C@H](C(C)C)NC(=O)[C@H](C)N(C)C1=O [pd076] ([dA][NMeI]I[NMeF][NMeβAla][NMeL][Sar]A[NMeL][Abu][NMeA]V[NMeF][NMeD]-Piperidide; lactam N-14) ?
result: 10.9 µL/min/mg

* * *

# method notes: Mouse PK test: plasma concentration after intravenous or oral administration
# Assay type: in vivo, mice (C57BL/6J)
# measurement setup: C57BL/6J, in vivo, male mice, intravenous administration, 1 mg/kg, read-out: Vss
Starred links: 1 amine or outer side, 2 acyl side, 3 side chain; linkers in the order of their positions; H or OH if unused. Non-standard residues stand in square brackets, D forms with d. Residues, ends and D or L forms follow the SMILES beside them. *: point of attachment. NMedβ3hAla = C[C@H](CC(=O)[*:2])N(C)[*:1]; NMeF = CN[C@@H](Cc1ccccc1)C(=O)O; NMeI = CC[C@H](C)[C@H](NC)C(=O)O; hPhe = N[C@@H](CCc1ccccc1)C(=O)O; NMeβAla = CN(CCC(=O)[*:2])[*:1]; NMeL = CN[C@@H](CC(C)C)C(=O)O; Abu = CC[C@H](N)C(=O)O; Sar = CNCC(=O)O; tBu = CC(C)(C)*
reported property: Vd (L/kg)
Respond numerically; units are L/kg and should not be typed.

query: What does the record list as Vd for CC[C@@H]1NC(=O)[C@H](CC(C)C)N(C)C(=O)[C@H](COC(C)(C)C)NC(=O)[C@H]([C@@H](C)CC)N(C)C(=O)[C@H](CCc2ccccc2)NC(=O)[C@H](Cc2ccccc2)N(C)C(=O)[C@H](C(C)C)NC(=O)[C@H](CC(C)C)N(C)C(=O)[C@H](CC(C)C)NC(=O)CCN(C)C(=O)C[C@@H](C)N(C)C(=O)CN(C)C(=O)[C@H](CC(C)C)N(C)C(=O)[C@@H]2CCCN2C1=O [pd065] (cyclo([Abu]P[NMeL][Sar][NMedβ3hAla][NMeβAla]L[NMeL]V[NMeF][hPhe][NMeI]S(tBu)[NMeL])) ?
result: 0.57
